- Measured on: TF/FVIla (Homo sapiens, UniProt P08709)
- Sequence (P08709 213-466 limits assumed): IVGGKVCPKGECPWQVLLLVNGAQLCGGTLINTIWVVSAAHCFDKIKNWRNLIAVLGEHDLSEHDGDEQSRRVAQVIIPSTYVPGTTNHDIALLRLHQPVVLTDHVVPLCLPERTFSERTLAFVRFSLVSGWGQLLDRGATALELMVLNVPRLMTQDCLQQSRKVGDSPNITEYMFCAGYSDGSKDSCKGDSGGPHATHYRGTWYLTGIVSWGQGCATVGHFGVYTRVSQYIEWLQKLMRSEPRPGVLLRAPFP
- Sequence (P08709 61-212 partner limits assumed): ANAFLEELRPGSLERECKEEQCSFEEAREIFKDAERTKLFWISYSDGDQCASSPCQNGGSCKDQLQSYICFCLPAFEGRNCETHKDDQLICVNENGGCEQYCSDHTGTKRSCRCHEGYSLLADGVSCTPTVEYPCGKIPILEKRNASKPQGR
- Sequence (P13726 33-295 partner): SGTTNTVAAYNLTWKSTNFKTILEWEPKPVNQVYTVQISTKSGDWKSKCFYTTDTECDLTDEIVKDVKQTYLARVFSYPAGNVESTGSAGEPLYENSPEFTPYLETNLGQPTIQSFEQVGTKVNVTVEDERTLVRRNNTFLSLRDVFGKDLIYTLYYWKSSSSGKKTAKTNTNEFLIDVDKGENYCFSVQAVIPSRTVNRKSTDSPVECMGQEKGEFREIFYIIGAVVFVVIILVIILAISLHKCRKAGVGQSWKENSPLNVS
- Protocol description: Inhibition of TF/factor VIIa (TF/FVIIa-IC50)
Readout: pIC50
To interpret pIC50, take it as minus log10 of a concentration measured in moles per litre.

Molecule | Readout | Recorded result
CCC[C@@H](NC(=O)Nc1ccc(Cl)s1)C(=O)Nc1ccc(N2CCOCC2=O)c(C)c1 [Compound A2] | pIC50 | 7.18

Next:
[ask] Indicate its recorded pIC50; the molecule in question is CCCC(NC(=O)Nc1ccc(Cl)s1)C(=O)Nc1ccc(N2CCOCC2=O)cc1 (centres unmarked) [Compound A1]
[reply] 6.74

The reported measurements were obtained from patent US20060135515A1.
